biological target: UniProt P18031; assay: Inhibition of PTP1B (unknown origin); conditions: read-out: pIC50 (converted)
Sequence (P18031 whole entry): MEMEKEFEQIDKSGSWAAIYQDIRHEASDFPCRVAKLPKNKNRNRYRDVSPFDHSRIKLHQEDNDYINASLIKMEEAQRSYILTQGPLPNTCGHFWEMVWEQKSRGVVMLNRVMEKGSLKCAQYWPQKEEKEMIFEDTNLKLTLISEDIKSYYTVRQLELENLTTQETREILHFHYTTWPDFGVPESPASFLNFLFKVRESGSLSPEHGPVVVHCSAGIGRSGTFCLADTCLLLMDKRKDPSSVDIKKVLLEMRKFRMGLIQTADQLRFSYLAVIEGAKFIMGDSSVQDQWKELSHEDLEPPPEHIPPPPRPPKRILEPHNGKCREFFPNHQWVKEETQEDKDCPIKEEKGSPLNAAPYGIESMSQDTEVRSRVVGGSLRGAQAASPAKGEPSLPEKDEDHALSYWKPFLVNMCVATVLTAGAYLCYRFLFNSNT
Endpoint Name: IC50 (nM)
Number only, in nM; omit the unit.

Examples with answers:
{"Compound": "CC1(C)CC[C@]2(CC(=O)NC(Cc3cnc[nH]3)C(=O)O)CC[C@]3(C)C(=CC[C@@H]4[C@@]5(C)CC[C@H](O)C(C)(C)[C@@H]5CC[C@]43C)[C@@H]2C1 (stereo partly specified)", "Target Of Assay": "UniProt P18031", "Unit Spec": "nM", "IC50": 4620}
{"Compound": "Cc1ccccc1CC(NC(=O)C[C@]12CCC(C)(C)C[C@H]1C1=CC[C@@H]3[C@@]4(C)CC[C@H](O)C(C)(C)[C@@H]4CC[C@@]3(C)[C@]1(C)CC2)C(=O)O (stereo partly specified)", "Target Of Assay": "UniProt P18031", "Unit Spec": "nM", "IC50": 550}
{"Compound": "CC1(C)CC[C@]2(C(=O)OCCCCCCCCCCC(=O)O)CC[C@]3(C)C(=CC[C@@H]4[C@@]5(C)CC[C@H](O)C(C)(C)[C@@H]5CC[C@]43C)[C@@H]2C1", "Target Of Assay": "UniProt P18031", "Unit Spec": "nM", "IC50": 720}
{"Compound": "CC1(C)CC[C@]2(C(=O)OCCCCCCCCC(=O)O)CC[C@]3(C)C(=CC[C@@H]4[C@@]5(C)CC[C@H](O)C(C)(C)[C@@H]5CC[C@]43C)[C@@H]2C1", "Target Of Assay": "UniProt P18031", "Unit Spec": "nM", "IC50": 780}
{"Compound": "CC1(C)CC[C@]2(CC(=O)NC(Cc3ccc(Cl)cc3)C(=O)O)CC[C@]3(C)C(=CC[C@@H]4[C@@]5(C)CC[C@H](O)C(C)(C)[C@@H]5CC[C@]43C)[C@@H]2C1 (stereo partly specified)", "Target Of Assay": "UniProt P18031", "Unit Spec": "nM", "IC50": 610}
{"Compound": "CC1(C)CC[C@]2(CC(=O)NC(CC3=CCc4ccccc43)C(=O)O)CC[C@]3(C)C(=CC[C@@H]4[C@@]5(C)CC[C@H](O)C(C)(C)[C@@H]5CC[C@]43C)[C@@H]2C1 (stereo partly specified)", "Target Of Assay": "UniProt P18031", "Unit Spec": "nM", "IC50": 590}

Query: Looking for the measured IC50 of CC1(C)CC[C@]2(C(=O)OCCC(=O)O)CC[C@]3(C)C(=CC[C@@H]4[C@@]5(C)CC[C@H](O)C(C)(C)[C@@H]5CC[C@]43C)[C@@H]2C1 , can you help?
Response: 2100

Query: Fill blank: measured IC50 of the compound CSCCC(NC(=O)C[C@]12CCC(C)(C)C[C@H]1C1=CC[C@@H]3[C@@]4(C)CC[C@H](O)C(C)(C)[C@@H]4CC[C@@]3(C)[C@]1(C)CC2)C(=O)O (stereo partly specified) is ____.
Response: 550

Query: Which measured IC50 value corresponds to CC1(C)CC[C@]2(C(=O)O)CC[C@]3(C)C(=CC[C@@H]4[C@@]5(C)CC[C@H](Cc6ccccc6)C(C)(C)[C@@H]5CC[C@]43C)[C@@H]2C1 ?
Response: 2670

Query: // query IC50 value for entry COc1ccccc1CC(NC(=O)C[C@]12CCC(C)(C)C[C@H]1C1=CC[C@@H]3[C@@]4(C)CC[C@H](O)C(C)(C)[C@@H]4CC[C@@]3(C)[C@]1(C)CC2)C(=O)O (stereo partly specified)
Response: 530

Query: Fill blank: measured IC50 of the compound CC1(C)CC[C@]2(CC(=O)NC(Cc3ccc([N+](=O)[O-])cc3)C(=O)O)CC[C@]3(C)C(=CC[C@@H]4[C@@]5(C)CC[C@H](O)C(C)(C)[C@@H]5CC[C@]43C)[C@@H]2C1 (stereo partly specified) is ____.
Response: 450
